readout: melting point (°C)

# compound, melting point (°C)
records = [
    ("COc1cc(OC)cc(N(C/C(C)=N\\O)c2ccc3ncc(-c4cnn(C)c4)nc3c2)c1 [Compound 81]", 199),
    ("COc1cc(OC)cc(N(c2ccc3ncc(-c4cnn(C)c4)nc3c2)[C@H]2CC[C@H](NC(C)C)CC2)c1", 107),
]

(I) COC(=O)c1cccnc1C#CCN(c1cc(OC)cc(OC)c1)c1ccc2ncc(-c3cnn(C)c3)nc2c1
(II) COc1cc(OCCO)cc(N(CC2CC2)c2ccc3ncc(-c4cnn(CCS(C)(=O)=O)c4)nc3c2)c1
Incoming: Consider I and II . Which of these has its melting point at a higher number? Reply with the label of the item you choose.
Outgoing: I

---

readout: melting point (°C)

Answered examples (2):
# compound, unit_descriptor, endpoint_result
measured = [
    ("COc1cccc(N(CCNC(C)C)c2ccc3ncc(-c4cnn(C)c4)nc3c2)c1", "°C", 247),
    ("COc1cc(OC)cc(N(CCNC(C)C)c2ccc3ncc(-c4cnn(CCS(C)(=O)=O)c4)nc3c2)c1", "°C", 148),
]

(A) COc1cc(OCCN)cc(N(CC2CC2)c2ccc3ncc(-c4cnn(C)c4)nc3c2)c1 [Compound 32]
(B) COc1cc(OC)cc(N(CC#Cc2ncccc2OC)c2ccc3ncc(-c4cnn(C(C)C)c4)nc3c2)c1
Incoming: Sorting ascending by melting point, which comes first: A or B ? Reply with the label of the item you choose.
Outgoing: A
(A: 80 °C, B: 119 °C)

(1) COc1cc(OCCO)cc(N(CC2CC2)c2ccc3ncc(-c4cnn(C)c4)nc3c2)c1 [Compound 24]
(2) COc1cc(OC)cc(N(CC#Cc2cc(C(N)=O)ccn2)c2ccc3ncc(-c4cnn(C)c4)nc3c2)c1
(3) COc1ccc(OC)c(N(CCN)c2ccc3ncc(-c4cn[nH]c4)nc3c2)c1 [Compound 438]
Incoming: Order these by melting point, descending, and give the full ranking. Respond with the label ranking, as requested.
Outgoing: 2, 3, 1
(2: 204 °C, 3: 140.67 °C, 1: 80 °C)

---

Counter-ions that a name gives are not always drawn.
readout: melting point (°C)

# compound, unit_descriptor, melting point
measured = [
    ("COc1cc(F)cc(N(CCNC(C)C)c2ccc3ncc(-c4cn[nH]c4)nc3c2)c1", "°C", 194),
    ("COc1cc(OC)cc(N(CC2CO2)c2ccc3ncc(-c4cnn(C)c4)nc3c2)c1 (centres unmarked)", "°C", 158.57),
    ("COc1cc(OC)cc(N(CCCN2CCC[C@@H]2CC#N)c2ccc3ncc(-c4cnn(C)c4)nc3c2)c1 (as salt: HCl)", "°C", 140),
    ("COc1cc(OC)cc(N(CCNCCC#N)c2ccc3ncc(-c4cnn(C)c4)nc3c2)c1 [Compound 140]", "°C", 123.19),
    ("COc1cc(OCCO)cc(N(CCN)c2ccc3ncc(-c4cnn(C)c4)nc3c2)c1", "°C", 165),
    ("COc1cc(OC)cc(N(CC2COCC(C)(C)N2)c2ccc3ncc(-c4cnn(C)c4)nc3c2)c1 (centres unmarked)", "°C", 157),
    ("COc1cc(OC)cc(N(CC2CC2)c2ccc3ncc(-c4cnn(CCN5CCN(CCO)CC5)c4)nc3c2)c1", "°C", 146.13),
    ("COc1cc(OC)cc(N(C[C@H](O)C(F)(F)F)c2ccc3ncc(-c4cnn(CCCN)c4)nc3c2)c1 (stereo in doubt)", "°C", 154),
]

---

Structures can show the parent of a compound that is named as a salt.
readout: melting point (°C)

# compound, melting point, °C
records = [
    ("COc1cc(OC)cc(N(CC2CC2)c2ccc3ncc(-c4cnn(CCCNCCS(C)(=O)=O)c4)nc3c2)c1 [Compound 231]", 106.81),
    ("COc1cc(OC)cc(N(CC2CCN(c3nccc(OC)n3)CC2)c2ccc3ncc(-c4cnn(C)c4)nc3c2)c1 [Compound 839]", 126),
    ("COc1cc(OC)cc(N(CC#Cc2cc(Cl)nc(N)n2)c2ccc3ncc(-c4cnn(C)c4)nc3c2)c1", 220),
    ("COc1cc(OC)cc(N(CCNC2CC(C)(C)NC(C)(C)C2)c2ccc3ncc(-c4cnn(C)c4)nc3c2)c1", 80),
    ("COc1cc(OC)cc(N(CCN2CCC(CN)CC2)c2ccc3ncc(-c4cnn(C)c4)nc3c2)c1 (as salt: HCl)", 151),
]

(A) CCOC(=O)C1CCN(CCN(c2cc(OC)cc(OC)c2)c2ccc3ncc(-c4cnn(C)c4)nc3c2)CC1 [Compound 343]
(B) CCOP(=O)(CCN(c1cc(OC)cc(OC)c1)c1ccc2ncc(-c3cnn(C)c3)nc2c1)OCC
Incoming: Consider A and B . Which of these has its melting point at a higher number? Reply with the label of the item you choose.
Outgoing: B
(B: 122 °C, A: 80 °C)

(P) COc1cccnc1C#CCN(c1ccc2ncc(-c3cnn(C)c3)nc2c1)c1c(Cl)c(OC)cc(OC)c1Cl [Compound 785]
(Q) [2H]C([2H])([2H])Oc1cc(OC([2H])([2H])[2H])cc(N(CCCNCC(F)(F)F)c2ccc3ncc(-c4cnn(C)c4)nc3c2)c1
Incoming: Sorting ascending by melting point, which comes first: P or Q ? Reply with the label of the item you choose.
Outgoing: Q
(Q: 127 °C, P: 190 °C)

(1) COc1cc(OC)cc(N(CC2CC2)c2ccc3ncc(-c4cnn(C5CCN(S(C)(=O)=O)CC5)c4)nc3c2)c1
(2) COc1cc(OC)cc(N(CCN2C[C@H](C)C[C@H](C)C2)c2ccc3ncc(-c4cnn(C)c4)nc3c2)c1 [Compound 39]
(3) CCOc1cc(F)cc(N(CCO)c2ccc3ncc(-c4cnn(C)c4)nc3c2)c1 [Compound 401]
Incoming: Order these by melting point, descending, and give the full ranking. Respond with the label ranking, as requested.
Outgoing: 1, 3, 2

---

Structures can show the parent of a compound that is named as a salt.
readout: melting point (°C)

Answered examples (5):
# compound, melting point [°C]
measured = [
    ("COc1cc(OC)cc(N(CCCN2CCC(F)(F)C2)c2ccc3ncc(-c4cnn(CC5CCOCC5)c4)nc3c2)c1 [Compound 459]", 99.32),
    ("COc1cc(OC)cc(N(CC(F)CN)c2ccc3ncc(-c4cnn(C)c4)nc3c2)c1 (centres unmarked)", 168),
    ("COc1cc(OC)cc(N(CCCc2nccc(O)n2)c2ccc3ncc(-c4cnn(C)c4)nc3c2)c1 [Compound 663]", 200),
    ("COc1cc(OC)cc(N(CCNCC(O)C(F)(F)F)c2ccc3ncc(-c4cnn(C)c4)nc3c2)c1 (centres unmarked)", 123),
    ("COc1cc(F)cc(N(CCO)c2ccc3ncc(-c4cn[nH]c4)nc3c2)c1", 80),
]

(I) CCn1cc(-c2cnc3ccc(N(CCCN4CCCC4=O)c4cc(OC)cc(OC)c4)cc3n2)cn1 (as salt: HCl)
(II) COc1cc(OC)cc(N(CCNC(C)C)c2ccc3ncc(-c4cnn(CCCN5CCN(CCO)CC5)c4)nc3c2)c1 (as salt: HCl) [Compound 644]
Incoming: Sorting ascending by melting point, which comes first: I or II ? Reply with the label of the item you choose.
Outgoing: II
(II: 96 °C, I: 197 °C)

---

Structures can show the parent of a compound that is named as a salt.
readout: melting point (°C)

# compound, readout, unit_descriptor, endpoint_result
measured = [
    ("CNCCN(c1cc(F)cc(OC)c1)c1ccc2ncc(-c3cnn(C)c3)nc2c1", "melting point", "°C", 70),
    ("CCn1cc(-c2cnc3ccc(N(CCNC(C)C)c4cc(OC)cc(OC)c4)cc3n2)cn1 (as salt: HCl)", "melting point", "°C", 194),
    ("COc1cc(OC)cc(N(CCCC#N)c2ccc3ncc(-c4cnn(C)c4)nc3c2)c1", "melting point", "°C", 196.25),
]

(1) COc1cc(OC)cc(N(CCNC(C)C)c2ccc3ncc(-c4cnn(C5CCOC5)c4)nc3c2)c1 (stereo not shown) (as salt: HCl)
(2) COc1cc(OC)cc(N(CC#CC2CCN(C(=O)OC(C)(C)C)CC2)c2ccc3ncc(-c4cnn(C)c4)nc3c2)c1
Incoming: Consider 1 and 2 . Which of these has its melting point at a higher number? Reply with the label of the item you choose.
Outgoing: 1

(A) COc1cc(OC)cc(N(Cc2cccnc2)c2ccc3ncc(-c4cnn(C)c4)nc3c2)c1
(B) COc1cc(OC)cc(N(c2ccc3ncc(-c4cnn(C)c4)nc3c2)S(=O)(=O)N(C)C)c1
Incoming: Consider A and B . Which of these has its melting point at a higher number? Reply with the label of the item you choose.
Outgoing: A

(a) COc1cc(OC)cc(N(CCC(C)(C)O)c2ccc3ncc(-c4cnn(C)c4)nc3c2)c1
(b) COc1cc(OC)cc(N(CCN(Cc2ccccc2N)C(C)C)c2ccc3ncc(-c4cnn(C)c4)nc3c2)c1
Incoming: Consider a and b . Which of these has its melting point at a higher number? Reply with the label of the item you choose.
Outgoing: a

(a) c1ccc(N(CC2CC2)c2ccc3ncc(-c4cn[nH]c4)nc3c2)cc1
(b) COc1cc(OC)cc(N(CCCN)c2ccc3ncc(-c4cn[nH]c4)nc3c2)c1
Incoming: Sorting ascending by melting point, which comes first: a or b ? Reply with the label of the item you choose.
Outgoing: a
(a: 138 °C, b: 198.91 °C)
